- Tested on: TTR
- assay-procedure: TTR editing in primary cyno hepatocytes electroporated with Spy Cas9 protein and sgRNAs (Tables 14, 15)
- Assay type: cell-based, cynomolgus monkey
- cond: Table 15; primary cyno hepatocytes electroporated with Spy Cas9 protein (RNP) and cyno specific sgRNAs
Strand notation (5' to 3'): a small letter for the sugar, then the base; units joined by * are phosphorothioate-linked, units joined directly phosphodiester-linked; [ ] holds rarer units or linkages, { } end groups; capitals alone tell only the bases. m = 2'-O-methyl; r = 2'-OH (RNA)
// thresholds for Avg % Insert classes: bottom end: < 50%; midrange: ≥ 50% and < 70%; top end: ≥ 70%

Here's what some known entries look like.
G000510: TTR Cyno specific sgRNA modified sequence, SEQ ID No. 122; guide sequence of CR005370 (nucleic acid) guide: mA*mC*mU*rUrGrUrCrUrUrCrUrCrUrArUrArCrCrCrArGrUrUrUrUrArGrAmGmCmUmAmGmAmAmAmUmAmGmCrArArGrUrUrArArArArUrArArGrGrCrUrArGrUrCrCrGrUrUrArUrCrAmAmCmUmUmGmAmAmAmAmAmGmUmGmGmCmAmCmCmGmAmGmUmCmGmGmUmGmCmU*mU*mU*mU | top end
G000508: TTR Cyno specific sgRNA modified sequence, SEQ ID No. 120; guide sequence of CR005368 (nucleic acid) guide: mC*mC*mU*rCrCrUrCrUrGrCrCrUrCrGrCrUrGrGrArCrGrUrUrUrUrArGrAmGmCmUmAmGmAmAmAmUmAmGmCrArArGrUrUrArArArArUrArArGrGrCrUrArGrUrCrCrGrUrUrArUrCrAmAmCmUmUmGmAmAmAmAmAmGmUmGmGmCmAmCmCmGmAmGmUmCmGmGmUmGmCmU*mU*mU*mU | bottom end
G000507: TTR Cyno specific sgRNA modified sequence, SEQ ID No. 119; guide sequence of CR005367 (nucleic acid) guide: mC*mC*mA*rGrUrCrCrArGrCrGrArGrGrCrArGrArGrGrGrUrUrUrUrArGrAmGmCmUmAmGmAmAmAmUmAmGmCrArArGrUrUrArArArArUrArArGrGrCrUrArGrUrCrCrGrUrUrArUrCrAmAmCmUmUmGmAmAmAmAmAmGmUmGmGmCmAmCmCmGmAmGmUmCmGmGmUmGmCmU*mU*mU*mU | midrange
G000511: TTR Cyno specific sgRNA modified sequence, SEQ ID No. 123; guide sequence of CR005371 (nucleic acid) guide: mA*mA*mG*rUrGrArCrUrUrCrCrArGrUrArArGrArUrUrGrUrUrUrUrArGrAmGmCmUmAmGmAmAmAmUmAmGmCrArArGrUrUrArArArArUrArArGrGrCrUrArGrUrCrCrGrUrUrArUrCrAmAmCmUmUmGmAmAmAmAmAmGmUmGmGmCmAmCmCmGmAmGmUmCmGmGmUmGmCmU*mU*mU*mU | midrange
G000502: TTR Cyno specific sgRNA modified sequence, SEQ ID No. 114; guide sequence of CR000689; cross homologous between mouse and cyno (nucleic acid) guide: mA*mC*mA*rCrArArArUrArCrCrArGrUrCrCrArGrCrGrGrUrUrUrUrArGrAmGmCmUmAmGmAmAmAmUmAmGmCrArArGrUrUrArArArArUrArArGrGrCrUrArGrUrCrCrGrUrUrArUrCrAmAmCmUmUmGmAmAmAmAmAmGmUmGmGmCmAmCmCmGmAmGmUmCmGmGmUmGmCmU*mU*mU*mU | bottom end
G000503: TTR Cyno specific sgRNA modified sequence, SEQ ID No. 115; guide sequence of CR005372 (nucleic acid) guide: mA*mA*mA*rArGrGrCrUrGrCrUrGrArUrGrArGrArCrCrGrUrUrUrUrArGrAmGmCmUmAmGmAmAmAmUmAmGmCrArArGrUrUrArArArArUrArArGrGrCrUrArGrUrCrCrGrUrUrArUrCrAmAmCmUmUmGmAmAmAmAmAmGmUmGmGmCmAmCmCmGmAmGmUmCmGmGmUmGmCmU*mU*mU*mU | midrange
G000509: TTR Cyno specific sgRNA modified sequence, SEQ ID No. 121; guide sequence of CR005369 (nucleic acid) guide: mA*mA*mA*rGrUrUrCrUrArGrArUrGrCrCrGrUrCrCrGrGrUrUrUrUrArGrAmGmCmUmAmGmAmAmAmUmAmGmCrArArGrUrUrArArArArUrArArGrGrCrUrArGrUrCrCrGrUrUrArUrCrAmAmCmUmUmGmAmAmAmAmAmGmUmGmGmCmAmCmCmGmAmGmUmCmGmGmUmGmCmU*mU*mU*mU | bottom end
G000506: TTR Cyno specific sgRNA modified sequence, SEQ ID No. 118; guide sequence of CR005366 (nucleic acid) guide: mA*mU*mA*rCrCrArGrUrCrCrArGrCrGrArGrGrCrArGrGrUrUrUrUrArGrAmGmCmUmAmGmAmAmAmUmAmGmCrArArGrUrUrArArArArUrArArGrGrCrUrArGrUrCrCrGrUrUrArUrCrAmAmCmUmUmGmAmAmAmAmAmGmUmGmGmCmAmCmCmGmAmGmUmCmGmGmUmGmCmU*mU*mU*mU | top end

Turning now to a further molecule:
IN: Assign a bin to G000505: TTR Cyno specific sgRNA modified sequence, SEQ ID No. 117; guide sequence of CR005365 (nucleic acid) guide: mC*mA*mU*rUrGrArCrArGrCrArGrGrArCrUrGrCrCrUrGrUrUrUrUrArGrAmGmCmUmAmGmAmAmAmUmAmGmCrArArGrUrUrArArArArUrArArGrGrCrUrArGrUrCrCrGrUrUrArUrCrAmAmCmUmUmGmAmAmAmAmAmGmUmGmGmCmAmCmCmGmAmGmUmCmGmGmUmGmCmU*mU*mU*mU
OUT: top end
